- Tested on: DNA synthesis in L1210 cells
- assay: Inhibition of DNA synthesis (incorporation of tritiated 3H-thymidine) in cultured L1210 cells
- Type: cell-based
- condition.context: Mus musculus, L1210, read-out: Nucleic Acid Syn Inhibn, ED50 DNA
Where a name gives a salt, the structure may show the parent alone.
Each entry below carries its recorded pIC50.
Here pIC50 is given on a logarithmic scale as minus log10 of the concentration in mol/L.

Before answering, review these 2 worked examples.
[[record]]
compound = "COc1cccc2c1C(=O)c1c(O)c3c(c(O)c1C2=O)C[C@@](O)(C(O)CO)C[C@@H]3O[C@H]1C[C@H](N2CCCCC2)[C@H](O)[C@H](C)O1 (stereo partly drawn) [N,N-Pentamethylene-13-dihydroadriamycin]"
obs_value = 6.14

[[record]]
compound = "COc1cccc2c1C(=O)c1c(O)c3c(c(O)c1C2=O)C[C@@](O)(C(=O)CO)C[C@@H]3O[C@H]1C[C@H](N)[C@H](O)[C@H](C)O1 [Adriamycin hydrochloride]"
obs_value = 5.82


Turning now to a further compound:
Sample COc1cccc2c1C(=O)c1c(O)c3c(c(O)c1C2=O)C[C@@](O)(C(C)=O)C[C@@H]3O[C@H]1C[C@H](N)[C@H](O)[C@H](C)O1 [Daunomycin hydrochloride] — what was its pIC50?
6.18
